Entry source: PubChem BioAssay (NCI)

# Tested on: LOX IMVI melanoma
# assay_info: NCI tumour cell line growth inhibition, 48 h
quantity_measured: TGI

COc1cc(-c2c(C#N)c(N)n3c(nc4ccccc43)c2C#N)cc(Br)c1OC = > 100 µM
CC(=O)NNc1nc(C)c(C(/C=C/c2cccc([N+](=O)[O-])c2)=N/NC(=S)NN)s1 = > 100 µM
CC(=O)OCC1OC(N2C(c3ccccc3)=CC(c3ccccc3)C(C#N)=C2S)C(OC(C)=O)C(OC(C)=O)C1OC(C)=O (stereo not given) = > 42.5 µM
CCOC(=O)[C@H]1Nc2ccc(C)cc2C2c3ccccc3CC21 (stereo not given in full) = > 100 µM

Shift focus to the following entry.
# input Param item = COC(=O)c1cc2c(c(C(=O)OC)c1O)C(=O)C=CC2=O ; retrieve measured TGI.
# output > 56.9 µM

###

# Test system: OVCAR-8 ovarian
# assay_info: NCI tumour cell line growth inhibition, 48 h
quantity_measured: log10 TGI (log10 of the value in µM)
Please be aware that the numbers have been log10-transformed from TGI in µM.

Examples from the recorded data:
Oc1cc(O)c2c(c1)O[C@H](c1cc(O)c(O)c(O)c1)[C@H](O)C2 = 1.47
CC(C)(C)C1=CC(=CC=C2C=CN(CCCCCCCCCCCO)C=C2)C=C(C(C)(C)C)C1=O = 0.32
COc1cc2c(c(OC)c1OC)-c1ccc(SC)c(=O)cc1C(CC(=O)Oc1ccc([N+](=O)[O-])cc1)C2 (configuration not stated) = 0.71
CCN(CC)Cc1cc(Nc2ccnc3ccc4c(nnn4C)c23)ccc1O = 1.62
CN(CCCNc1ccc2ncn3c4ccccc4c(=O)c1c23)CCCN1C(=O)c2cccc3cc([N+](=O)[O-])cc(c23)C1=O = 0.27

# input Form entry - test system: OVCAR-8 ovarian; read-out: log10 TGI; molecule: COc1ccc(C(=O)/C=C/c2cccnc2Nc2cc(OC)c(OC)c(OC)c2)cc1
# output 1.04

# input // lookup log10 TGI | system=OVCAR-8 ovarian | key= Brc1ccc2c(-c3nc(-c4c[nH]c5ccc(Br)cc45)cs3)c[nH]c2c1
# output 1.40

# input Please tell me: log10 TGI of Cc1cc(NS(=O)(=O)c2ccc(NC(=O)c3cccc4c(=O)c5ccccc5[nH]c34)cc2)no1 , system OVCAR-8 ovarian?
# output 1.83

# input # returns recorded log10 TGI (system: OVCAR-8 ovarian) for COc1ccc(-c2nc(-c3nc4ccc(C)cc4[nH]3)c3ccccn23)cc1
# output 0.79

# input Please tell me: log10 TGI of Cn1cc(-c2csc(-c3cccc(F)c3)n2)c2cccnc21 , system OVCAR-8 ovarian?
# output 1.81

###

# Tested on: SW-620 colon
# assay_info: NCI tumour cell line growth inhibition, 48 h
Below: a set of entries, each annotated with reported TGI.

Please review the entries below; each comes with its answer.
Nc1ccc(C(=O)Nn2c(-c3ccccc3)nc3ccccc3c2=O)cc1 = > 100 µM
CN(C)/N=C(\CCN1CCCC1)CC(c1ccccc1)c1c(O)c2ccccc2oc1=O (stereo unspecified) = > 100 µM

# input For the molecule shown here, Cc1cc(C2CCCCC2)n(O)c(=O)c1 , give the reported TGI.
# output > 100 µM

# input Fill in the blank: the reported TGI of CCCCC/C=C/C/C=C/CCCCCCCC1=NC(C)(C)CN1C(C)C is ____.
# output 2.99 µM

# input State the recorded TGI for this entry: NC(N)=NC(N)=Nc1cc2ccccc2c2ccccc12
# output 21.4 µM

# input Using the record for CNC(=O)N1CCN(C(=O)NC)CCN(C(=O)NC)CC1 , report its TGI.
# output > 100 µM

###

# System: RXF 393 renal
# assay_info: NCI tumour cell line growth inhibition, 48 h
Where a SMILES comes first, the peptide text is derived from it. Bridges are numbered along the chain shown (N, C = ends). [ ]: non-standard residue; d: D form. The star is where a group is joined. Cbz = O=C(OCc1ccccc1)*; Aib = CC(C)(N)C(=O)O; OBn = c1ccc(CO*)cc1; βAla = NCCC(=O)O
quantity_measured: TGI

Answered cases to consult:
CC1(C)NC(=O)C(NC(=O)C(CC(=O)OCc2ccccc2)NC(=O)OCc2ccccc2)CCCCNC(=O)CCNC1=O (stereo not drawn) (Cbz-D(OBn)K[Aib][βAla]; lactam 2-C; configuration not given here) = > 100 µM
O=C(C[C@@H](C(=O)NCc1cccc(C(F)(F)F)c1)N1C(=O)[C@@H](N2C(=O)OC[C@@H]2c2ccccc2)[C@H]1/C=C/c1ccccc1)NC1CCN(Cc2ccccc2)CC1 = 4.88 µM
CC[N+](C)(CC)Cc1ccccc1[N+](=O)[O-] = > 100 µM

# input Please look up its TGI: COc1ccccc1N1C(=O)/C(=C\c2cccc(Oc3ccccc3)c2)SC1c1ccccc1 (stereo not drawn)
# output > 100 µM

# input If you can, please state the reported TGI value of CC(=O)c1ccc(NC(=O)/C(Cc2ccccn2)=N/NC(=O)C[N+](C)(C)C)cc1 .
# output > 100 µM

# input Given Nc1nccc(-c2c(-c3ccc(F)cc3)ncn2CCCN2CCOCC2)n1 , state its recorded TGI.
# output > 25 µM

# input Recorded TGI for COc1ccc(C2CC(=O)c3c(O)c(OC)c(OC)c(OC)c3O2)c(O)c1 (stereo not drawn) , please?
# output 25.5 µM

# input Suppose we examine the compound Cn1c(=O)c2c(nc(NCCCCl)n2CC(=O)NCCCCl)n(C)c1=O ; what TGI value has been reported?
# output > 100 µM

###

TGI for assorted compounds
# System: MDA-N
# assay_info: NCI tumour cell line growth inhibition, 48 h

Answered examples (10):
NS(=O)(=O)c1nnc(NC(=O)c2ccccc2)s1 = > 100 µM
O=c1[nH]c(=O)n(C2CC(O)C(CS)O2)cc1F (configuration not stated) = > 100 µM
Clc1cccc(Cl)c1C1SCC2=Nc3ccccc3CN21 (configuration not stated) = > 100 µM
CCC1(O)C(=O)OCc2c1cc1n(c2=O)Cc2cc3c(N)cccc3nc2-1 (configuration not stated) = 2.57 µM
CN1CCC(OC(=O)Oc2ccccc2)(c2ccccc2)CC1 = 34.9 µM
NC(N)=N/N=C/c1c(Cl)nc2sccn12 = > 100 µM
c1ccc2c(c1)nc1n2CNCC1 = > 100 µM
O=C(O)c1cc(N=Nc2ccc([As](=O)(O)O)cc2)ccc1O = > 100 µM
Cc1[nH]c(=O)[nH]c(=S)c1C(=O)NC(C)(CO)CO = > 100 µM
CN(C)CC(CN(C)C)c1ccccn1 = > 100 µM

# input Using the record for O=C1NNC(=O)C2C3c4ccccc4C(c4ccccc43)C12 (configuration not stated) , report its TGI.
# output > 100 µM

# input So what's the measured TGI for this one? NCCc1nc(-c2nc(C(=O)O)cs2)cs1
# output > 100 µM

###

Listed below: TGI values for each entry.
# Test system: MDA-MB-231 breast
# assay_info: NCI tumour cell line growth inhibition, 48 h

# input Can you look up the measured TGI of CC(=O)NCc1nc(C#N)c(N)o1 for me?
# output > 100 µM

# input Would you mind telling me what TGI value was observed for CCCN(CCCCC(NC(C)=O)C(=O)NCc1ccccc1)C(=O)N(CCCl)N=O (stereo unspecified) ?
# output > 100 µM

###

Below, each entry is listed with its recorded TGI.
# Tested on: A549 NSCLC
# assay_info: NCI tumour cell line growth inhibition, 48 h

Look over these answered cases.
N#[O+].O=S(=O)([O-])[O-].[NH2-].[NH2-].[NH2-].[NH2-].[NH2-].[Ru+5] = > 100 µM
CC[C@H](C)[C@H](NC(=O)[C@H]1CCCCN1C)C(=O)N(C)[C@H](CCc1nc(C(=O)N[C@@H](Cc2ccccc2)C[C@H](C)C(=O)OC)cs1)C(C)C = > 25 µM
CCOC(=O)C(Cl)(NC(=O)c1ccc(F)cc1)C(F)(F)F (stereo unspecified) = > 100 µM

# input # query: TGI of entry Cc1cccc(C(C)(C)C)c1NC(=O)CCc1n[nH]c(=S)o1
# output > 100 µM

# input What measured TGI goes with COc1cc([C@@H]2c3cc4c(cc3C(O[C@@H]3O[C@@H]5CO[C@@H](c6cccs6)OC5[C@H](O)[C@H]3O)C3COC(=O)[C@@H]32)OCO4)cc(OC)c1O (stereo partly specified) ?
# output 0.822 µM

###

Listing: TGI of selected molecules
# Test system: NCI-H460 lung
# assay_info: NCI tumour cell line growth inhibition, 48 h

These solved cases illustrate the format of a correct answer.
COC12C=CC(CC1)C(C)(C)C2=O (stereo unspecified) = > 100 µM
Cc1ccc2nc3ccccc3c(C3C4C(=O)N(c5ccc(Br)cc5Cl)C(=O)C4ON3C(C(N)=O)c3ccccc3)c2c1 (stereo unspecified) = > 25 µM
O=S(O)CCCCSSCCCCSSCCCCS(=O)O = > 100 µM

# input So what TGI did Cn1cc(-c2csc(-c3cccc(F)c3)n2)c2cccnc21 get with NCI-H460 lung?
# output 34.7 µM

# input What value of TGI on NCI-H460 lung does CC(C(=O)O)c1cnn(-c2ccccc2)c1-n1cccc1 (stereo unspecified) have?
# output > 100 µM

# input Quick check: TGI on NCI-H460 lung, item CCOC(=O)c1c(C)n(Cc2ccc(OC)cc2)c2c1cc(O)c1[nH]c3c(c12)CCCC3 ?
# output 27.8 µM
